Target of assay: human CD33 on primary human monocyte-derived dendritic cells (human, UniProt P20138 18-364)
Sequence (P20138 18-364): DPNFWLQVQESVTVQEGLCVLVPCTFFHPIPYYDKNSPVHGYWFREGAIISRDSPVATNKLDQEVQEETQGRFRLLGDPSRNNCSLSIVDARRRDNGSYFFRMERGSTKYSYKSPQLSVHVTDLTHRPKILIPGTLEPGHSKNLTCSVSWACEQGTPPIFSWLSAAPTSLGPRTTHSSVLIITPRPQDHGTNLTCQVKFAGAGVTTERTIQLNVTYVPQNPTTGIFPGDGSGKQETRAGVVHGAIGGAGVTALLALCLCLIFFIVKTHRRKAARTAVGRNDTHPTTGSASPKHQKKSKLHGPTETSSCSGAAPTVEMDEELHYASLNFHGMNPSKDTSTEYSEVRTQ
Assay notes: cell-based or functional assay
Property measured: Receptor downregulation (EC50) (nM)
Give the number; nM is assumed, so skip it.

// known answers, use as guide
AB-H6 (antibody, V domains shown, Humanized variant of murine 2F5.1) VH: QVQLVQSGAEVKKPGASVKVSCKASGYTFTDYNLHWVRQAPGQGLEWMGFIYPSNGITGYAQKFQGRVTMTVDTSTSTAYMELSSLRSEDTAVYYCARSTVDYFDYWGQGTTVTVSS VL: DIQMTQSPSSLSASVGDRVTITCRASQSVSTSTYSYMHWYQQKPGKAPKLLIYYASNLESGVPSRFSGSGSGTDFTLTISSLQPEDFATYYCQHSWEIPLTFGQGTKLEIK: 0.169
Chimeric Ab #2 (antibody, V domains shown, Chimeric Ab with a VH-FR3 mutation that removes the predicted N-glycosylation site) VH: EVQLQQSGPELVKPGASVKISCKASGYTFTDYNLHWVKLSHGKSLEWIGFIYPSNGITGYNQKFKNKATLTVDTSSSTAYMELRSLTSEDSAVYYCARSTVDYFDYWGQGTTLTVSS VL: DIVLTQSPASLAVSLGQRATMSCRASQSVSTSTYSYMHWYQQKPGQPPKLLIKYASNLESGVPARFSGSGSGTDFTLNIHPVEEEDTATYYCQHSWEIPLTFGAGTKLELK: 0.119
AB-H11 (antibody, V domains shown, Humanized variant of murine 2F5.1) VH: QVQLVQSGAEVKKPGASVKVSCKASGYTFTDYNLHWVRQAPGQSLEWIGFIYPSNGITGYSQKFQGKATLTVDTSASTAYMELSSLRSEDTAVYYCARSTVDYFDYWGQGTTVTVSS VL: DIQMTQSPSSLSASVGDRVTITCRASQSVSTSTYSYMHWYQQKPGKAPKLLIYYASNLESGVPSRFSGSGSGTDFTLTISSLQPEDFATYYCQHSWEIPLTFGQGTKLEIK: 0.0772

Suppose we examine the binder AB-H3 (antibody, V domains shown, Humanized variant of murine 2F5.1) VH: QVQLVQSGAEVKKPGASVKISCKASGYTFTDYNLHWVRQAPGQGLEWIGFIYPSNGITGYAQKFQGRATLTVDTSTSTAYMELSSLRSEDTAVYYCARSTVDYFDYWGQGTLLTVSS VL: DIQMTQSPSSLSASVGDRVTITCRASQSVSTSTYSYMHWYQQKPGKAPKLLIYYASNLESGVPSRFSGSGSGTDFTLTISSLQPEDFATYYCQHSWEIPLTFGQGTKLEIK ; what Receptor downregulation (EC50) value has been reported? 0.0933

Suppose we examine the binder AB-H26 (antibody, V domains shown, Humanized variant of murine 2F5.1; also called AB-26) VH: QVQLVQSGAEVKKPGASVKVSCKASGYTFTDYNLHWVRQAPGQRLEWIGFIYPSNGITGYSQKFQGRATLTVDTSASTAYMELSSLRSEDTAVYYCARSTVDYFDYWGQGTTVTVSS VL: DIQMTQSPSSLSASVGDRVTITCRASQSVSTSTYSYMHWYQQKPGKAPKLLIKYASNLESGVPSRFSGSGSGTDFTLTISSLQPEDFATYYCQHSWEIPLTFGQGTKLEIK ; what Receptor downregulation (EC50) value has been reported? 0.0519

Suppose we examine the binder AB-H1 (antibody, V domains shown, Humanized variant of murine 2F5.1) VH: QVQLVQSGAEVKKPGASVKVSCKASGYTFTDYNLHWVRQAPGQGLEWMGFIYPSNGITGYAQKFQGRVTMTRDTSTSTVYMELSSLRSEDTAVYYCARSTVDYFDYWGQGTLVTVSS VL: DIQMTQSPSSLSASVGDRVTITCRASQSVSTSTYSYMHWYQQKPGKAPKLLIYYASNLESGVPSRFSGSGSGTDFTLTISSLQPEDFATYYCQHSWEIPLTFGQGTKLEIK ; what Receptor downregulation (EC50) value has been reported? 0.127

Suppose we examine the binder Chimeric Ab (antibody, V domains shown, Chimeric antibody with the variable regions of murine 2F5.1; also called parental antibody; comparator antibody) VH: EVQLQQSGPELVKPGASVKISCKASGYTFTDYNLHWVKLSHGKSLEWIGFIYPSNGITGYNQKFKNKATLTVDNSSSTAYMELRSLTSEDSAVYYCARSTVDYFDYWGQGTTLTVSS VL: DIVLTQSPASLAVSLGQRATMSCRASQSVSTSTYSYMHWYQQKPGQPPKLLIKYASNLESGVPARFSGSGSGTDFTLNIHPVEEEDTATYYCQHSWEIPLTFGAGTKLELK ; what Receptor downregulation (EC50) value has been reported? 0.0869
